Source listed as patent EP3225590A1.

Entries and their measured Kd follow.
- target_or_test_system: ANR-Y1
- method: Fluorescence titration of ANR-Y1 suspension with analyte, 1:1 single-site binding fit
- measurement_conditions: 10 mM HEPES buffer (pH 7.3), ANR 250 µg/mL; >> = less than 10% change in emission intensity at >50 molar excess of analyte; error less than ±20%; read-out: Kd(ANR-Y1)

Recorded Kd, per entry:
{"compound": "CC(=O)OCC[N+](C)(C)C [acetylcholin]", "target_or_test_system": "ANR-Y1", "Kd": "> 1000 µM"}
{"compound": "CC(=O)CCc1ccc(O)cc1 [raspberry ketone]", "target_or_test_system": "ANR-Y1", "Kd": "> 1000 µM"}
{"compound": "Oc1ccccc1O [catechol]", "target_or_test_system": "ANR-Y1", "Kd": "> 1000 µM"}
{"compound": "N[C@@H](CCC(=O)O)C(=O)O [glutamate]", "target_or_test_system": "ANR-Y1", "Kd": "> 1000 µM"}

Shift focus to the following entry.
Data point: NCCc1ccc(O)cc1 [tyramine] ; Kd = 5.7 µM
